molecular target: Hck (UniProt P08631); test: phosphorylation enrichment, bacterial display (enrichment ratio); higher = better substrate or ligand; peptides without Tyr show the background
Sequence (P08631 whole entry, looked up): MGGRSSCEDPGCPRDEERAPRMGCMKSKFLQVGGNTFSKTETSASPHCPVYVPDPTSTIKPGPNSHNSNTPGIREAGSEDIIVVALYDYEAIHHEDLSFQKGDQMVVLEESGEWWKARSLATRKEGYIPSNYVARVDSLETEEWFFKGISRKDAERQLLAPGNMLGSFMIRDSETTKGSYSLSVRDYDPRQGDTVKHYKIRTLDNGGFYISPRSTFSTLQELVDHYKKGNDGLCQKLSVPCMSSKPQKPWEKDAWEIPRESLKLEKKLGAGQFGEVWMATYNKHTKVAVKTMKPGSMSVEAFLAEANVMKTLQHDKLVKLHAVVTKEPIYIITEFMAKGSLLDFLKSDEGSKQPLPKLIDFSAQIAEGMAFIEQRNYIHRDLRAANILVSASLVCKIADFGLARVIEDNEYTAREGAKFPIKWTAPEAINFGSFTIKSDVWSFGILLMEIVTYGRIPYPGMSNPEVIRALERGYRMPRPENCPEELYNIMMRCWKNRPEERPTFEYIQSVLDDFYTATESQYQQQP
Label 1 when phosphorylation enrichment is at or above 0.5; anything below gets 0.

Record excerpt, results attached:
RPASVYTKRCS [CPT2_Y508]: 0
DQVEQYNKELE [LMNA_Y259_K260N]: 1
AFSTVYKGLWI [EGFR_Y727_G724S]: 0

State whether the measured phosphorylation enrichment reaches 0.5, counting equality as reaching it, for LARDMDDKEFF [MET_Y1230_Y1230D_YF]
0

Reported phosphorylation enrichment at or above 0.5? TFTVSYLPDMS [FLNC_Y1602_YF]
0

====

system: AncSZ; experiment: phosphorylation enrichment, bacterial display (enrichment ratio); higher = better substrate or ligand; peptides without Tyr show the background
endpoint: phosphorylation enrichment
Format: numeric value only, no unit, no commentary.

ESLSSYWESAK [APOC2_Y47]: 0.84
PSNTEYPGPHS [TP63_Y171_D170E]: 0.806
LSSNLYYRWLT [CNGA3_Y168_P163L]: 6.06

In the following, a different sequence is considered.
I have this sequence here, RQGKDYIGAIP [KDR_Y951_V952I] , and I need its recorded phosphorylation enrichment.
0.804

====

Entries annotated with measured phosphorylation enrichment
target: Hck (UniProt P08631); assay: phosphorylation enrichment, bacterial display (enrichment ratio); higher = better substrate or ligand; peptides without Tyr show the background

Below, each entry is followed by its recorded phosphorylation enrichment result.
SGADSYEMEED [EGFR_Y316_C311S]: 0.668
EADRKYEEVAC [TPM3_Y163_R168C]: 0.681
PLQKIYNFNVL [SLC4A1_Y553_T552I_YF]: 1.12

Please look at the following sequence next.
Please look up its phosphorylation enrichment: DRIVNYSRASV [ATP7A_Y1459_I1464V]
0.45

====

test system: c-Abl (mouse); assay: phosphorylation enrichment, bacterial display (enrichment ratio); higher = better substrate or ligand; peptides without Tyr show the background
Rule: condition met for phosphorylation enrichment not less than 0.6, condition not met for anything less.

ECKLRYSRKEG [PTPN11_Y263_L262R]: condition not met
RLGNQYVNVMN [SLC3A1_Y461]: condition not met
LRWREYQRQDY [PRKRIP1_Y90_R87W]: condition met
PVDTYYDSTRG [DYNC2H1_Y2231_M2227V]: condition met
DQLVKHGVNPG [TMPO_Y127_Y127H]: condition not met

Test whether the sequence SSYDIYHLSRE [KIR3DL2_Y253] records phosphorylation enrichment of 0.6 or higher.
condition met

Would you say IDGLEYLHSQG [STK11_Y166] shows phosphorylation enrichment at minimum 0.6?
condition not met

Could you please find out whether EVKRLYGSVCD [TC2N_Y154] has phosphorylation enrichment that meets 0.6 or exceeds it?
condition met

Is phosphorylation enrichment for GDYYCYLAEVA [YWHAG_Y133_R132C] at or above 0.6?
condition met

====

target: FGFR3 (UniProt P22607); assay: phosphorylation enrichment, bacterial display (enrichment ratio); higher = better substrate or ligand; peptides without Tyr show the background
Sequence (P22607 whole entry, looked up): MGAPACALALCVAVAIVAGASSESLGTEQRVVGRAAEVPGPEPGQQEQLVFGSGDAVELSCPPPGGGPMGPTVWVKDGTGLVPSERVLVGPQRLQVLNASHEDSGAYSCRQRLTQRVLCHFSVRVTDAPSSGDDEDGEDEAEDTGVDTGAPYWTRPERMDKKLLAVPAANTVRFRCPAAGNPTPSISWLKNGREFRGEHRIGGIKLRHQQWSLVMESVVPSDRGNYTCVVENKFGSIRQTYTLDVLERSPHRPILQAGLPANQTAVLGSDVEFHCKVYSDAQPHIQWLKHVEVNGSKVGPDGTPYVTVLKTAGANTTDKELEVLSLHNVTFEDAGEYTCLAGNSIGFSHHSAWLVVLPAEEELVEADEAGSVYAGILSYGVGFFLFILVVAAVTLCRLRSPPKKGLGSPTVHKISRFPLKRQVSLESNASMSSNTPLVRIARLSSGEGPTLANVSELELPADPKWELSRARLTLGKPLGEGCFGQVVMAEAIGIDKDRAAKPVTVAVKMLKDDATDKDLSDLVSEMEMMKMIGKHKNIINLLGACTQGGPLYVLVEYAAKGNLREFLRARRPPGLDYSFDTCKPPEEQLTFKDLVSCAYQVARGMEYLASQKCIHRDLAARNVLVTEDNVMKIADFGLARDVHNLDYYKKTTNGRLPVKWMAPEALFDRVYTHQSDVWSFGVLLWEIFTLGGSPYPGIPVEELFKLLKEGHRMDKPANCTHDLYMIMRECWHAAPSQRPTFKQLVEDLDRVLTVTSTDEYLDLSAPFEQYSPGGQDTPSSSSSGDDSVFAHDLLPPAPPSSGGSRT
endpoint: phosphorylation enrichment
Output: the number by itself.

Known results for sequences:
QRRLVYYEGGA [RYR1_Y245]: 0.602
GMTLSYLFREL [NDUFS8_Y74_P79L]: 0.604
EFDRLYEEFTR [PIK3R1_Y467_YF]: 0.807

# input sequence: KPMDTYYDSTR [DYNC2H1_Y2230] ; wanted: its phosphorylation enrichment
0.76

Endpoint output: phosphorylation enrichment of KWKQKYEESQS [MYH6_Y1462_E1457K] . Value?
0.693

Sample TLKDVYDDGKF [RPS6KA3_Y483_YF] — what was its phosphorylation enrichment?
0.66

Give its phosphorylation enrichment value. Item: ECKLRYSRKEG [PTPN11_Y263_L262R]
0.53

Which phosphorylation enrichment is listed for SISYDYCRVPM [BST2_Y8_T4I] ?
5.46

I would be grateful if you could share the reported phosphorylation enrichment for ERIEFYELDKK [PMM2_Y145] .
0.76

Quick check: phosphorylation enrichment of GCVSKYSGVFS [TUBGCP6_Y1624] ?
0.51

====

test system: AncSZ; test: phosphorylation enrichment, bacterial display (enrichment ratio); higher = better substrate or ligand; peptides without Tyr show the background
endpoint: phosphorylation enrichment
Reply with the value as a number alone.

QRRLVYYEGGA [RYR1_Y245]: 0.788
RRIEKYVDQGK [IRAK3_Y61_H57R]: 0.88
SESSYYKSLNL [NGEF_Y289_A286S]: 0.876

Now look at this entry.
Consider the sequence ENEGTYVCIAT [ADAMTSL3_Y1365] and give its measured phosphorylation enrichment.
1.46

====

In this section we review reported phosphorylation enrichment values for a set of sequences.
target: MERTK (UniProt Q12866); assay: phosphorylation enrichment, bacterial display (enrichment ratio); higher = better substrate or ligand; peptides without Tyr show the background
Sequence (Q12866 whole entry, looked up): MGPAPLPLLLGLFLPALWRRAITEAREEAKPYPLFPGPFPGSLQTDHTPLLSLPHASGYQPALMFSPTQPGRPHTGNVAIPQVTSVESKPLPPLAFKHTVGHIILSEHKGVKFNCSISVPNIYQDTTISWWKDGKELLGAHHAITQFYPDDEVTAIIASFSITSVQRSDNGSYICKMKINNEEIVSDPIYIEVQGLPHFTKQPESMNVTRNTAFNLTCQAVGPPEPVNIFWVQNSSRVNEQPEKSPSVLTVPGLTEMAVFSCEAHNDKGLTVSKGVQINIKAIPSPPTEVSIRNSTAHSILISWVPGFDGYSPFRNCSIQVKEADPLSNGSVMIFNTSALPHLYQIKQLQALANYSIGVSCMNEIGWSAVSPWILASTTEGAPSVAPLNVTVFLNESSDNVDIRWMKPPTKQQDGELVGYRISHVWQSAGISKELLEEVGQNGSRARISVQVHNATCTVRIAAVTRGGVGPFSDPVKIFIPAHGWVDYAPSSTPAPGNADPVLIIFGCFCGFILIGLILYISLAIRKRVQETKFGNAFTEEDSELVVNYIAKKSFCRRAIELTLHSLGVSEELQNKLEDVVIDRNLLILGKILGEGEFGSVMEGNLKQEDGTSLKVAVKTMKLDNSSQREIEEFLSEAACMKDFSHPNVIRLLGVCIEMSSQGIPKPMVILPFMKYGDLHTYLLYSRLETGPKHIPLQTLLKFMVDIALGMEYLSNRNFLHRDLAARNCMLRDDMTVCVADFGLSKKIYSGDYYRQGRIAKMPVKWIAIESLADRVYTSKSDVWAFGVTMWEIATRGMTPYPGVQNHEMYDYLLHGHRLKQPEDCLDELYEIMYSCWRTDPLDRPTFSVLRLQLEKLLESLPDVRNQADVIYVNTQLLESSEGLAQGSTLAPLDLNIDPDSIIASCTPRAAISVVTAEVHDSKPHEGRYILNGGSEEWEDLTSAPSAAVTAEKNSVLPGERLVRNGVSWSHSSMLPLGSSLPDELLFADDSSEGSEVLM
# answer = number (no unit)

Consider the worked cases shown below.
SLGKGYSVGGC [MC4R_Y35_D37V]: 0.354
TLKVGYKEKQR [EPHA3_Y659_T660K]: 0.37

# input sequence: LISVSYDDWDY [GRIN2A_Y281] ; wanted: its phosphorylation enrichment
0.691

Reported phosphorylation enrichment for DFPGIYSGYDD [POLR1C_Y33_N32I] : what is it?
0.565

Please look up its phosphorylation enrichment: AVISVYDLVAV [PSEN1_Y256]
6.38

====

biological target: c-Src SH2; test: SH2 binding enrichment of the phosphorylated peptide, bacterial display (enrichment ratio); higher = better substrate or ligand; peptides without Tyr show the background;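 further: peptide library displayed on the E. coli surface as eCPX fusions, selected cells deep-sequenced, score is each peptide's frequency after selection divided by its frequency in the input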
We use 0.6 as the dividing line for SH2 binding enrichment: on or above the line is Satisfied, below is Not satisfied.

FSALDYKIFYY [WDPCP_Y210_L205F]: Satisfied
RHLQEYQDLLN [GFAP_Y349]: Satisfied
CTNELYMMMRD [FGFR1_Y730]: Not satisfied
SKLTIYDARPS [MTM1_Y277]: Not satisfied
FPLELYERVRI [PRKCG_Y312_M317I_YF]: Not satisfied

Does SH2 binding enrichment meet or surpass 0.6 for ELSDGYWVVSN [TPP1_Y459_A454E] ?
Satisfied

Entry DYSLKYATDIP [APC_Y1183] : is its SH2 binding enrichment no less than 0.6?
Not satisfied

Could you tell me if the measured SH2 binding enrichment of HGVSSYDTIIS [LDLR_Y465_V468I] reaches 0.6 or more?
Satisfied

Could you tell me if the measured SH2 binding enrichment of RLGNQYVNVMN [SLC3A1_Y461] reaches 0.6 or more?
Satisfied

Check if SH2 binding enrichment >= 0.6 (inclusive). Item: TLKDVYDDGKF [RPS6KA3_Y483_YF]
Not satisfied

Reported SH2 binding enrichment at or above 0.6? WGTPEYDSVVA [MAP1A_Y1883_A1881P]
Satisfied

Quick check: does YRGYSYDDIPD [TMEM230_Y112] have SH2 binding enrichment greater than or equal to 0.6?
Satisfied

Please indicate if the recorded SH2 binding enrichment for VVLEDYLDIKN [CLCNKB_Y138] meets or exceeds 0.6.
Not satisfied

State whether the measured SH2 binding enrichment reaches 0.6, counting equality as reaching it, for GGGGSYNDFGN [HNRNPA1_Y312]
Not satisfied

Item RVNSAYQEKVS [ACAN_Y100_D102E] with SH2 binding enrichment of 0.6 or above?
Not satisfied

Check this sequence for SH2 binding enrichment at or above 0.6: QFFQSYFNNNF [ZNF236_Y644]
Satisfied

Form field: SH2 binding enrichment at least 0.6? Entry: RHTRSYDYTEG [FGF7_Y56_M59T]
Satisfied

Please indicate if the recorded SH2 binding enrichment for RSIGEYDVLRG [PRKDC_Y2936] meets or exceeds 0.6.
Satisfied

I'd appreciate it if you could say whether NIEPIYLNMLL [ATR_Y317_V316I] has SH2 binding enrichment at least equal to 0.6.
Not satisfied

Could you please find out whether SVVVPYERPEV [TP53_Y220_P222R] has SH2 binding enrichment that meets 0.6 or exceeds it?
Satisfied

// inclusive: SH2 binding enrichment at least 0.6? input: QTLEAYIRWNK [SPAST_Y604]
Satisfied

Given the entry AKKVFYVNETR [SHH_Y253_I255N] , answer whether its SH2 binding enrichment meets or surpasses 0.6.
Satisfied

Kindly determine if SH2 binding enrichment recorded for SEEVNYATLTF [CLEC12B_Y7_T6N] is above or exactly 0.6.
Not satisfied

Assess whether reported SH2 binding enrichment for IMAYFYMCDRA [CASD1_Y382] sits at 0.6 or higher.
Satisfied

Could you tell me if the measured SH2 binding enrichment of PYYTSYPPSPD [GDAP2_Y491] reaches 0.6 or more?
Satisfied
